# STUDY SYSTEM: Human BCL-XL protein (N-terminal HiBiT tagged BCL-XL in HT1080 cells) (Homo sapiens, UniProt Q07817)
# Construct: expressed in transfected cells; host or cells: HT-1080 (ATCC CCL-121), stably transduced with lentivirus pLV-UBC-N-HiBiT-BCL-XL-PGK-puro and selected with puromycin
# Sequence (Q07817 whole entry): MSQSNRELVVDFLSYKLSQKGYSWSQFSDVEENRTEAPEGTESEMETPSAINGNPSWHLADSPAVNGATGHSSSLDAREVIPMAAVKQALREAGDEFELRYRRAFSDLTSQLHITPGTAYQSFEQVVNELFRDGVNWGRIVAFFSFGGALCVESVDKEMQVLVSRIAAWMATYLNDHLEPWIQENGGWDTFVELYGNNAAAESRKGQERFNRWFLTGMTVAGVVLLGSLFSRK
# MEASUREMENT PROTOCOL: HiBiT based degradation assay
# Assay type: cell-based
# RECORDED CONDITIONS: BCL-XL degradation; HT1080 cells expressing HiBiT-BCL-XL; 6 h; read-out: EC50 (6 h)
MEASURED METRIC: DC50

Take a look at these entries with their results.
Cc1c(Oc2ccc(CCC(=O)Nc3ccc(C4CCC(=O)NC4=O)cc3)cc2)cccc1-c1ccc(N2CCc3cccc(C(=O)Nc4nc5ccccc5s4)c3C2)nc1C(=O)O (centres unmarked) | < 0.1 µM
Cc1c(Oc2ccc(CC(F)(F)CN3CCN(c4ccc5c(C6CCC(=O)NC6=O)nn(C)c5c4)CC3)cc2)cccc1-c1ccc(N2CCc3cccc(C(=O)Nc4nc5ccccc5s4)c3C2)nc1C(=O)O (centres unmarked) | 0.1 to 1 µM
Cc1c(Oc2ccccc2CCCC(=O)Nc2cccc3c(C4CCC(=O)NC4=O)nn(C)c23)cccc1-c1ccc(N2CCc3cccc(C(=O)Nc4nc5ccccc5s4)c3C2)nc1C(=O)O (centres unmarked) | 1 to 10 µM
Cc1c(OCCC2CCN(CC(=O)N3CCN(c4ccc5c(C6CCC(=O)NC6=O)nn(C)c5c4)CC3)CC2)cccc1-c1ccc(N2CCc3cccc(C(=O)Nc4nc5ccccc5s4)c3C2)nc1C(=O)O (centres unmarked) | < 0.1 µM

Could you now look at the following molecule, please?
Input line: What measured DC50 goes with Cc1c(O[C@H]2CC[C@H](CCC(=O)N3CCN(c4cccc5c(C6CCC(=O)NC6=O)nn(C)c45)CC3)CC2)cccc1-c1ccc(N2CCc3cccc(C(=O)Nc4nc5ccccc5s4)c3C2)nc1C(=O)O (some centres unmarked) [Compound 146a] ?
Output line: 0.1 to 1 µM
